Where do the numbers come from? From patent US20250340569A1.

Recorded IC50 by entry
- target.desc: UniProtKB Q8NI77
- Sequence (Q8NI77 whole entry): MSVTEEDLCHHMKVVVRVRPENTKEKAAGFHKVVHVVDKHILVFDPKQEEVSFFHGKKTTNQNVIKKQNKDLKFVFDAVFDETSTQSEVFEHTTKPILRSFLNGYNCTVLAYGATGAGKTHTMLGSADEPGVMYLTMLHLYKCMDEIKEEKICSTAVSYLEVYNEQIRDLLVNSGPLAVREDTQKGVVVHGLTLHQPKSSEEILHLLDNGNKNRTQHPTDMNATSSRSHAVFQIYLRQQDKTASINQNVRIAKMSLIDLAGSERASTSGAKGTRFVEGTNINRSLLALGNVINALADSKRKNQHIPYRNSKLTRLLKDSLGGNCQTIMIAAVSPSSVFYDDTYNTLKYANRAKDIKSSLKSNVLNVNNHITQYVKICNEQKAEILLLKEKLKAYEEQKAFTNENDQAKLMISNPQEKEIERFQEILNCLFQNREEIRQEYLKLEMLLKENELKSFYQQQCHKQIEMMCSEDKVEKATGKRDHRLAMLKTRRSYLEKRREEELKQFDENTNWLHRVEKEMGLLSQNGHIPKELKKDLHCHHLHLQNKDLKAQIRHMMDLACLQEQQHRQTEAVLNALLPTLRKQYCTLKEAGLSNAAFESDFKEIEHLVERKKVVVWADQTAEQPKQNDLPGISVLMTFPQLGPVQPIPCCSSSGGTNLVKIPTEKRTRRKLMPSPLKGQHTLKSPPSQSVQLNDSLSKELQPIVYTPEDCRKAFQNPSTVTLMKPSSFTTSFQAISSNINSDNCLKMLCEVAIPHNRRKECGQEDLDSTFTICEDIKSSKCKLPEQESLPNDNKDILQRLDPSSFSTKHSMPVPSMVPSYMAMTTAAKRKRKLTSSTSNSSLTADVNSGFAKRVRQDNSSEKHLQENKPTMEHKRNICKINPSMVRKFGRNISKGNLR

Below are worked cases with known answers.
Cc1cc2nc(n1)N(C)CCCOCC1(C)CCN(CC1)c1cc(S(=O)(=O)NC(C)(C)C)ccc1C(=O)N2 [EX15] : 10 to 100 nM
Cc1cc2nc(n1)OCCCOCC1(C)CCN(CC1)c1cc(NS(=O)(=O)CCO)ccc1C(=O)N2 [EX05] : < 10 nM
Cc1cc2nc(n1)NCC(C)COCC1(C)CCN(CC1)c1cc(NS(=O)(=O)CCO)ccc1C(=O)N2 (stereo not shown) [EX19] : < 10 nM

Next up:
Identify IC50 associated with the compound CC1CNc2cc(ccn2)NC(=O)c2ccc(NS(=O)(=O)CCO)cc2N2CCC(C(F)(F)F)(CC2)COC1 (stereo not shown) [EX57]
10 to 100 nM

----------
- Tested on: OVCAR-3
- protocol.notes: OVCAR3 CTG assay
- Assay type: cell-based
- condition.label: Homo sapiens, OVCAR-3, 144 h; CellTiter-Glo, 6 days incubation
measurement.kind: IC50

Below are worked cases with known answers.
CN1CCCCCC2(C(F)(F)F)CCN(CC2)c2cc(NS(=O)(=O)CCO)c(F)cc2C(=O)Nc2cccc1n2 : 0.01 to 0.1 µM
Cc1cc2nc(n1)NC[C@H](C)COCC1(C(F)(F)F)CCN(CC1)c1cc(NS(=O)(=O)CCO)ccc1C(=O)N2 : 0.01 to 0.1 µM
CN1CCOCC2(C)CCN(CC2)c2cc(NS(=O)(=O)CCO)ccc2C(=O)Nc2cccc(c2)C1=O : 0.1 to 1 µM
C[C@H]1CNc2nc(ccc2F)NC(=O)c2ccc(NS(=O)(=O)CCO)cc2N2CCC(C(F)(F)F)(CC2)COC1 : < 0.01 µM

Next up:
Identify IC50 associated with the compound `CCS(=O)(=O)Nc1ccc2c(c1)N1CCC(C(F)(F)F)(CC1)COC[C@@H](C)CNc1cccc(n1)NC2=O`
0.01 to 0.1 µM

----------
Recorded pIC50 by entry
- System: OVCAR-3
- protocol.notes: OVCAR3 CTG assay
- Format: cell-based
- condition.label: Homo sapiens, OVCAR-3, 144 h; CellTiter-Glo, 6 days incubation
pIC50: −log10 of the molar value.

Below are worked cases with known answers.
Cc1cc2nc(n1)N1CCO[C@@H](COCC3(C(F)F)CCN(CC3)c3cc(NS(=O)(=O)CCO)ccc3C(=O)N2)C1 [EX113-B] : 7.00 to 8.00
O=C1Nc2cccc(n2)N2CCO[C@H](COCC3(C(F)(F)F)CCN(CC3)c3cc(NS(=O)(=O)CCO)ncc31)C2 [EX92-A] : 7.00 to 8.00
CN1CCCCCC2(C(F)(F)F)CCN(CC2)c2cc(NS(=O)(=O)CCO)ccc2C(=O)Nc2ccnc1n2 [EX90] : 7.00 to 8.00
O=C1Nc2ccnc(n2)N2CCO[C@@H](COCC3(C(F)(F)F)CCN(CC3)c3cc(NS(=O)(=O)CCO)ccc31)C2 [EX93-B] : 7.00 to 8.00
Cc1cc2nc(n1)OCCOCC1(C)CCN(CC1)c1cc(NS(=O)(=O)CCO)ccc1C(=O)N2 [EX03] : 6.00 to 7.00
O=C1Nc2ccc(=O)n(n2)CCCCCCC2(C(F)(F)F)CCN(CC2)c2cc(NS(=O)(=O)CCO)ccc21 [EX64] : 7.00 to 8.00

Identify pIC50 associated with the molecule C[C@@H]1CCOCC2(C(F)(F)F)CCN(CC2)c2cc(NS(=O)(=O)CCO)ccc2C(=O)Nc2cccc(n2)N1 [EX107-A]
6.00 to 7.00

Identify pIC50 associated with the molecule CC12CCN(CC1)c1cc(S(=O)(=O)NC(C)(C)C)ccc1C(=O)Nc1cccc(n1)OCCCOC2 [EX07]
7.00 to 8.00

Identify pIC50 associated with the molecule Cc1cc2nc(n1)N(C)CCCOCC1(C3CC3)CCN(CC1)c1cc(NS(=O)(=O)CCO)ccc1C(=O)N2 [EX41]
6.00 to 7.00

----------
Recorded IC50 by entry
- Test system: OVCAR-3
- protocol.notes: OVCAR3 CTG assay
- Assay type: cell-based
- condition.label: Homo sapiens, OVCAR-3, 144 h; CellTiter-Glo, 6 days incubation

Below are worked cases with known answers.
O=C1Nc2cccc(n2)N2CCO[C@@H](COCC3(C(F)(F)F)CCN(CC3)c3cc(NS(=O)(=O)CCO)ncc31)C2 (stereo in doubt) : < 10 nM
Cc1cc2nc(n1)NC[C@H](C(F)(F)F)COCC1(C)CCN(CC1)c1cc(NS(=O)(=O)CCO)ccc1C(=O)N2 : 10 to 100 nM
Cc1cc2nc(n1)NCCC(C)OCC1(C)CCN(CC1)c1cc(NS(=O)(=O)CCO)ccc1C(=O)N2 (centres unmarked) : 10 to 100 nM
CCS(=O)(=O)Nc1cc2c(cn1)C(=O)Nc1cccc(n1)N(C)CCCOCC1(C(F)(F)F)CCN2CC1 : 10 to 100 nM
O=C1Nc2cccc(n2)N2CCO[C@H](COCC3(C(F)(F)F)CCN(CC3)c3cc(NS(=O)(=O)CCO)ccc31)C2 : 10 to 100 nM
Cc1cc2nc(n1)NCCCCCC1(C)CCN(CC1)c1cc(NS(=O)(=O)CCO)ccc1C(=O)N2 : < 10 nM
[2H]C([2H])([2H])N1CCCOCC2(C(F)(F)F)CCN(CC2)c2cc(S(=O)(=O)NCCO)ccc2C(=O)Nc2cccc1n2 : 10 to 100 nM

Next up:
Identify IC50 associated with the compound `Cc1cc2nc(n1)N1CCO[C@@H](CCCC3(C(F)(F)F)CCN(CC3)c3cc(NS(=O)(=O)CCO)ccc3C(=O)N2)C1`
10 to 100 nM
